Assay: ATP-evoked calcium signal inhibitors, parental CHO, primary screen, counter-screen for OX1R antagonist project, cell-based, fluorescence, Fluo-8 calcium dye (AID 463079);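 also: 0% = ATP-challenged DMSO wells and 100% = DMSO wells without ATP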
Conditions: parental CHO-K1, ATP-induced calcium, Fluo-8 fluorescence; at 5.6 µM; hits give high values
Hit rate of the full screen: of about 330,000 compounds, about 2,000 (0.61%) were called active. For the sample, actives were picked, then their nearest neighbours and some compounds at random.

CPD_SMILES	inhibition (%)
CCOC(=O)CN(C(=O)COc1nc(-c2ccccc2)cc(C)c1C#N)c1ccc(F)cc1	-20.7
CC(C)Cc1nnc(NC(=O)CCNC(=O)c2ccccc2Cl)s1	-7.69
COc1cccc(CC(=O)OCC(=O)NCc2ccc3c(c2)OCO3)c1	-4.2
O=C(NNC(=O)c1cnccc1C(F)(F)F)c1ccc(Cl)cc1	-3
Cc1ccc(C)c(Cn2nnc3c(=O)[nH]c(C(=O)Nc4ccc(F)cc4)nc32)c1	-8.13

* * *

Experiment: ATP-evoked calcium signal inhibitors, parental CHO, primary screen, counter-screen for OX1R antagonist project, cell-based, fluorescence, Fluo-8 calcium dye (AID 463079);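 also: 0% = ATP-challenged DMSO wells and 100% = DMSO wells without ATP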
Settings: parental CHO-K1, ATP-induced calcium, Fluo-8 fluorescence; at 5.6 µM; hits give high values
Hit rate of the full screen: of about 330,000 compounds, about 2,000 (0.61%) were called active. Shown is part of a subset that was picked to be rich in actives.
READOUT_TYPE: inhibition (%)

CPD_SMILES	RESULT_VALUE
Cc1ccc(S(=O)(=O)Nc2nc(C)cc(-n3nc(C)cc3C)n2)cc1	2.29
Cc1cc(C(=O)O)c(S(C)(=O)=O)s1	-2.26
O=C(N/C(=C\c1ccc(F)cc1)C(=O)N1CCCCCC1)c1ccccc1	-14
CCn1nccc1C(=O)Nc1ccc(S(=O)(=O)NC23CC4CC(CC(C4)C2)C3)cc1	61
Cc1nc(CNS(=O)(=O)c2cc([N+](=O)[O-])ccc2C)cs1	-14.4
CCOCc1nnc(NC(=O)CCS(=O)(=O)Cc2ccccc2)s1	3.73
Cc1ccc(SC(=O)COc2ccc(C)c(C)c2)cc1	11.9
COc1ccc(S(=O)(=O)N2CCN(c3ncnc4c(-c5ccccc5)nsc34)CC2)cc1	-9.64
O=C(Nc1ccc(S(=O)(=O)Nc2ncccn2)cc1)C12CC3CC(CC(C3)C1)C2	-8.7
O=C(NCCC(=O)N1O[C@@H]2C=C[C@H]1C2)OCC1c2ccccc2-c2ccccc21	-10.5

* * *

Assay: ATP-evoked calcium signal inhibitors, parental CHO, primary screen, counter-screen for OX1R antagonist project, cell-based, fluorescence, Fluo-8 calcium dye (AID 463079);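 also: 0% = ATP-challenged DMSO wells and 100% = DMSO wells without ATP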
Settings: parental CHO-K1, ATP-induced calcium, Fluo-8 fluorescence; at 5.6 µM
The whole screen tested about 330,000 compounds, of which about 2,000 (0.61%) were called active.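 The calls were made as follows: active = inhibition above that plate's mean sample inhibition plus 3 SD (cut at about 26% in these data); inactive = the rest.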 Many of the other results were omitted from the sample, so actives are more common in it than they were.
Outcomes: 1 (yes) = active, 0 (no) = inactive

COMPOUND	CATEGORY
CCOC(=O)c1c(C)[nH]c(C(=O)COc2ccc3c(c2)OCO3)c1C	1 (yes)
Cc1cc(C)cc(OCC(=O)Nc2ccc(S(=O)(=O)Nc3ccccn3)cc2)c1	0 (no)
Cc1cccc(-n2c(Cc3cc(=O)[nH]c(=O)[nH]3)nnc2SCC(=O)Nc2cccc(C(F)(F)F)c2)c1	0 (no)
CCC(C(=O)OCC(=O)Nc1ccc(C(=O)Nc2ccc(OC)cc2)cc1)c1ccccc1 (stereo not drawn)	0 (no)
CCOC(=O)N1CCN(C(=O)c2ccc(S(=O)(=O)Nc3cccc(C(F)(F)F)c3)cc2)CC1	0 (no)
Cc1ccc(S(=O)(=O)NCc2csc(C)n2)c(C)c1	0 (no)
CCC(C)NC(=O)C1c2ccccc2Oc2ccccc21 (stereo not drawn)	0 (no)
O=S(=O)(NC1CC2CCC1C2)c1ccc(Cl)cc1 (stereo not drawn)	0 (no)
Cc1ccc(Cl)c(NC(=O)CN(C)CC(=O)Nc2ccc(F)c(F)c2F)c1Cl	0 (no)
Cc1nc(CNS(=O)(=O)c2ccc(Oc3ccccc3)cc2)cs1	1 (yes)
COc1cc(/C(=C/c2ccccc2)c2ccccc2)c2c(c1)oc1ccccc12	0 (no)
CC(C)=CCN1CCN(CCCc2ccccc2)CC1CCO (stereo not drawn)	0 (no)
CC1=C(C)CC2C(=O)N(c3cccc4ccccc34)C(=O)C2C1 (stereo not drawn)	0 (no)
CCC(C)(C)NC(=O)C1c2ccccc2Oc2ccccc21	1 (yes)
CC(=O)c1c(C)oc2ccc(NS(=O)(=O)c3ccc(C(=O)O)cc3)cc12	0 (no)
O=C(COC(=O)c1ncc(Cl)c(Cl)c1Cl)NCc1cccs1	0 (no)
CC1C/C(=N/NC(=O)c2cccs2)CC(C)(C)C1 (stereo not drawn)	0 (no)
COc1ccc(S(=O)(=O)Nc2ccc3oc(C)c(C(C)=O)c3c2)cc1	1 (yes)
CCC1(c2ccccc2)NC(=O)N(CC(=O)Nc2ccccc2C(=O)NC2CCCC2)C1=O (stereo not drawn)	0 (no)
Cc1oc2c(F)c(F)c(F)c(F)c2c1S(=O)(=O)Nc1cccc(C(F)(F)F)c1	1 (yes)
CCC(C(=O)Nc1ccc(C(C)C)cc1)c1ccccc1 (stereo not drawn)	1 (yes)
Cc1ccc(S(=O)(=O)Nc2ccc3ncccc3c2)cc1	1 (yes)
OCC[C@H]1C[C@@H](O)[C@H](O)[C@@]2(OCCc3ccccc32)O1	0 (no)
O=C(/C=C/c1ccc(F)cc1)Nc1cccc(S(=O)(=O)Nc2cccc(C(F)(F)F)c2)c1	0 (no)
Cc1nn(C)cc1/C=C1\CCC/C(=C\c2cn(C)nc2C)C1=O	0 (no)
CCc1ccc2ncc(C(=O)c3ccccc3)c(N3CCOCC3)c2c1	0 (no)
Cc1ccc(S(=O)(=O)N(CC(=O)N2CCc3ccccc3C2)c2cccc(Cl)c2)cc1	0 (no)
C=CCOC(=O)C1=C[C@H](c2ccc(Br)cc2)C[C@H](OCCCCO)O1	0 (no)
O=C(O)CC1S/C(=N\N=C/c2ccccc2O)N(c2ccc(O)cc2)C1=O (stereo not drawn)	0 (no)
O=C(COc1ccc(Cl)cc1)NC(=S)Nc1ccccc1N1CCOCC1	0 (no)
CCc1ccccc1N1C(=O)C2C3CC(=O)C(c4ccccc43)C2C1=O (stereo not drawn)	1 (yes)
Cc1ccccc1NC(=S)NC(=O)Cc1ccc(Cl)cc1	0 (no)
CC1CCN(c2ccc(-c3ccc(NC(=O)c4ccco4)cc3)nn2)CC1	1 (yes)
CCc1ccc(CN(C)C(=O)CCc2nnc(-c3ccc(-c4ccccc4)cc3)o2)nc1	0 (no)
CCC(=O)Nc1ccc(-c2ccc(N3CCCCC3)nn2)cc1	0 (no)
CCC(C)N(C(=O)CSc1nnnn1-c1ccccc1OC)C1CCS(=O)(=O)C1 (stereo not drawn)	0 (no)
CCCc1ccc(C(=O)COC(=O)CN2C(=O)NC3(CCCCC3C)C2=O)cc1 (stereo not drawn)	0 (no)
NC(=O)c1ccc(-c2csnn2)cc1	0 (no)
CC(=O)Nc1ccc(N2C(=O)C3C4CC(=O)C(c5ccccc54)C3C2=O)cc1 (stereo not drawn)	0 (no)
Cc1ccc(-c2cccc([C@H]3[C@@H]4C=CC[C@@H](C)[C@@H]4C(=O)N3Cc3ccccc3)c2)cc1	0 (no)
CCC(C(=O)Nc1ccc2c(c1)OCCO2)c1ccccc1 (stereo not drawn)	0 (no)
CC(=O)c1c(C)[nH]c(C(=O)COc2ccc3c(C)cc(=O)oc3c2)c1C	0 (no)
CC(=O)c1c(C)oc2ccc(NS(=O)(=O)c3ccccc3)cc12	0 (no)

* * *

Assay: ATP-evoked calcium signal inhibitors, parental CHO, primary screen, counter-screen for OX1R antagonist project, cell-based, fluorescence, Fluo-8 calcium dye (AID 463079);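 also: 0% = ATP-challenged DMSO wells and 100% = DMSO wells without ATP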
Details: parental CHO-K1, ATP-induced calcium, Fluo-8 fluorescence; at 5.6 µM; hits give high values
The campaign covered roughly 330,000 compounds. About 2,000 (0.61%) were called active. What follows is part of a selection rich in actives, with near analogues and random picks from the rest.

MOLECULE	inhibition [%]
Cc1cccc(C)c1NC(=O)CNC(=O)c1c(C)nn(-c2ccccc2)c1C	9.7
Cc1n[nH]c(C)c1S(=O)(=O)N1CCCC(C(=O)NCC2COc3ccccc3O2)C1 (stereo unspecified)	-6.84
O=C(N/C(=C\c1ccc(O)cc1)C(=O)N1CCCCC1)c1ccccc1	-2.82
CC[C@]1(C(=O)OC)[C@H]2C(=O)N(Cc3ccccc3)C(=O)[C@H]2[C@H]2CN=C(SCc3ccc(Cl)cc3)N21	-19.6
CC(C)(C)C(=O)NNC(=O)c1ccc(Oc2cc(Cl)cc(Cl)c2)o1	0.38
COc1cccc(C(=O)OCC(=O)c2[nH]c(C)c(C(C)=O)c2C)c1	-11.5
O=C(NCC1CCCO1)/C(=C/c1ccc(Cl)cc1)NC(=O)c1ccccc1 (stereo unspecified)	-2.9
CC1(C)CC(N2CCN(C(c3ccccc3)c3ccccc3)CC2)=CC(=[N+]2CCCCC2)C1	29.5
CC(OC(=O)/C=C/c1ccccc1)C(=O)Nc1ccc(C(N)=O)cc1 (stereo unspecified)	-8.76
CC(=O)c1c(C)[nH]c(C(=O)COC(=O)c2cccc(S(=O)(=O)N(C)c3ccccc3)c2)c1C	74.8
CCCC(C)NC(=O)C1CCN(C(=O)C2CC(=O)N(c3ccc(C)cc3)C2)CC1 (stereo unspecified)	-8.45
Oc1ccccc1CN1CCN(C(c2ccccc2)c2ccccc2)CC1	-33.9
O=C(O)CCN1C(=O)CC2(CCCCC2)C1=O	6.17
Cc1ccc(OCc2cc(C(=O)N(C)CCc3ccccc3)no2)cc1C	-11.5
O=C(c1cc(COc2ccc(F)c(F)c2)on1)N1CCOCC1	-5.07
Cc1cccc(C(=O)OCC(=O)Nc2sc3c(c2C#N)CCC3)c1	-1.94
CN(Cc1cccnc1)C(=O)c1cc(COc2ccc3ncccc3c2)on1	41.8
CC(=O)c1c(C)[nH]c(C(=O)COC(=O)c2cccs2)c1C	-6.37
CCn1ccnc1CN(C)C(=O)c1cc(COc2ccc(-n3cncn3)cc2)on1	-9.68
CC(=O)c1cccc(OCc2cc(C(=O)NC(C)Cc3cccnc3)no2)c1 (stereo unspecified)	-20
CCN1CCN(c2ccc(NC(=O)c3cnccn3)cc2)CC1	-2.98
